Target: M4 muscarinic receptor (Homo sapiens, UniProt P08173)
Construct: expressed in transfected cells; host or cells: CHO cells (M4-CHO, under puromycin, zeocin and blasticidin selection)
Test: Functional mobilization of intracellular calcium (FLIPR, Fluo-3), M4-CHO cells
Assay type: cell-based
Conditions: compound nos. 1-454; 100% efficacy is the maximum response obtained with the Carbachol control; read-out: M4 Efficacy
Emax values for the compounds below.

# COMPOUND, TESTED_ON, Emax
data = [
    ("COC(=O)N1CCC(CN2CCC3(CC2)C[C@H](NC(C)=O)c2ccccc23)CC1", "M4 muscarinic receptor (Homo sapiens, UniProt P08173)", "55 to 70%"),
]

Emax lookup needed for CC(=O)N1CC2(CCN(CC3CC4CCC3CC4)CC2)c2cc(F)ccc21 (centres unmarked) , thanks.
< 55%

Proceed to `CCOC(=O)N1CCC(N2CCC3(CC2)CN(C(=O)c2ccno2)c2ccc(F)cc23)CC1`
55 to 70%

Proceed to `COC(=O)N1CCC(N2CCC3(CC2)CN(C(=O)N(C)C)c2ccc(F)cc23)CC1`
> 70%

Proceed to `c1ccc2c(c1)CCC21CCN(CC2CCOCC2)CC1`
> 70%

###

Emax values for the compounds below.
Biological target: M4 muscarinic receptor (Homo sapiens, UniProt P08173)
Construct: expressed in transfected cells; host or cells: CHO cells (M4-CHO, under puromycin, zeocin and blasticidin selection)
Sequence (P08173 1-479): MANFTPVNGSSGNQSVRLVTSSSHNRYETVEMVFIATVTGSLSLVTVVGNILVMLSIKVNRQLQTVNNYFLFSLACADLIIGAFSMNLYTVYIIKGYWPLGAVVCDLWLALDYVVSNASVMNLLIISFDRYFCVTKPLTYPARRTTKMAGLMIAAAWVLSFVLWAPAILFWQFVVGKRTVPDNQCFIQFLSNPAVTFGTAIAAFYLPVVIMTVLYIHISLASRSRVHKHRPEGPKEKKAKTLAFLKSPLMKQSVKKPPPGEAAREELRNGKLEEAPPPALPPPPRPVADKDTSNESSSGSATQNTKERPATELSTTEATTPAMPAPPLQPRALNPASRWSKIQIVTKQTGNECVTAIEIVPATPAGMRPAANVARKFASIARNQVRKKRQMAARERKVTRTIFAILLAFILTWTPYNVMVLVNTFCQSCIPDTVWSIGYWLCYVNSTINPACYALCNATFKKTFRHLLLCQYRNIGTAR
Assay: Functional mobilization of intracellular calcium (FLIPR, Fluo-3), M4-CHO cells
Type: cell-based
Details: compound nos. 1-454; 100% efficacy is the maximum response obtained with the Carbachol control; read-out: M4 Efficacy

# COMPOUND, TESTED_ON, Emax
measured = [
    ("CCOC(=O)N1CCC(N2CCC3(CC2)C(=O)N(C)c2ccccc23)CC1", "M4 muscarinic receptor (Homo sapiens, UniProt P08173)", "55 to 70%"),
]

Please state recorded Emax (tested on M4 muscarinic receptor (Homo sapiens, UniProt P08173)) of `CCOC(=O)N1CCC(N2CCC3(CC2)CN(C(=O)c2cc(C)oc2C)c2ccc(F)cc23)CC1`
< 55%

Proceed to `CCCC(=O)N1CC2(CCN(C3CCN(C(=O)OCC)CC3)CC2)c2cc(F)ccc21`
55 to 70%

###

Emax values for the compounds below.
Target: M1 muscarinic receptor (Homo sapiens)
Construct: expressed in transfected cells; host or cells: CHO cells (M1-CHO, under zeocin and G418 selection)
Sequence (P11229 whole entry): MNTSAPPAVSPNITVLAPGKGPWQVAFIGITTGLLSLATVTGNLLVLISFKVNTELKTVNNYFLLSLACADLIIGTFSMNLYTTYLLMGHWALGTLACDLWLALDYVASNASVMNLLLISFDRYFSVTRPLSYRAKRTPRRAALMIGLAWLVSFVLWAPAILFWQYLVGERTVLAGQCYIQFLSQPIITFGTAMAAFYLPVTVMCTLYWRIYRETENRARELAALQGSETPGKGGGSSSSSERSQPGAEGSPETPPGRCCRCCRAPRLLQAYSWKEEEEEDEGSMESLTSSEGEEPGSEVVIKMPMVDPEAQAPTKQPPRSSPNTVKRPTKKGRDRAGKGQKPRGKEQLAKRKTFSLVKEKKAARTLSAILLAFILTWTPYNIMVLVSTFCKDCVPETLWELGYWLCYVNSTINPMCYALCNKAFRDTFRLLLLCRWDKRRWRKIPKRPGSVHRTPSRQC
Experiment: Functional mobilization of intracellular calcium (FLIPR, Fluo-3), M1-CHO cells
Assay type: cell-based
Conditions: compound nos. 1-454; 100% efficacy is the maximum response obtained with the Carbachol control; read-out: M1 Efficacy

# COMPOUND, TESTED_ON, Emax
rows = [
    ("Cc1ccc2c(c1)C1(CCN(C3CC4CCC(C4)C3)CC1)CN2 (stereo not shown)", "M1 muscarinic receptor (Homo sapiens)", "65 to 85%"),
    ("C1=C[C@H]2C[C@H]1C[C@H]2CN1CCC2(CCc3ccccc32)CC1", "M1 muscarinic receptor (Homo sapiens)", "< 65%"),
    ("CCOC(=O)N1C2CCC1CC(N1CCC3(CC1)CN(C(=O)OC)c1ccc(F)cc13)C2 (stereo not shown)", "M1 muscarinic receptor (Homo sapiens)", "65 to 85%"),
    ("CCOC(=O)N1CCC(N2CCC3(CC2)CN(C(C)=O)c2ccc(C4=CCCC4)cc23)CC1", "M1 muscarinic receptor (Homo sapiens)", "< 65%"),
    ("CCOC(=O)N1CCC(N2CCC3(CC2)CN(C(=O)C(C)(C)C)c2ccc(F)cc23)CC1", "M1 muscarinic receptor (Homo sapiens)", "< 65%"),
    ("CC(=O)N[C@@H]1CC2(CCN([C@@H]3C[C@@H]4CC[C@@H]3C4)CC2)c2ccccc21", "M1 muscarinic receptor (Homo sapiens)", "65 to 85%"),
    ("CCCOC(=O)N1C2CCC1CC(N1CCC3(CC1)COc1ccc(F)cc13)C2 (stereo not shown)", "M1 muscarinic receptor (Homo sapiens)", "65 to 85%"),
    ("CCOC(=O)N[C@H]1CC2(CCN(C[C@H]3C[C@H]4CC[C@H]3C4)CC2)c2ccccc21", "M1 muscarinic receptor (Homo sapiens)", "< 65%"),
    ("CCOC(=O)N1CCC(N2CCC3(CC2)CN(C(=O)OCC(C)(C)C)c2ccc(F)cc23)CC1", "M1 muscarinic receptor (Homo sapiens)", "< 65%"),
    ("CCOC(=O)N1C2CCC1CC(N1CCC3(CC1)CN(C(=O)NC(C)C)c1ccc(F)cc13)C2 (stereo not shown)", "M1 muscarinic receptor (Homo sapiens)", "65 to 85%"),
]

Emax lookup needed for O=C(O[C@@H]1CCOC1)N1C2CCC1CC(N1CCC3(CC1)C(=O)Nc1ccccc13)C2 (stereo partly shown) , thanks.
< 65%

Proceed to `CC(=O)N1CC2(CCN(CC3CCN(C(=O)O[C@@H]4CCOC4)CC3)CC2)c2cc(C)ccc21`
65 to 85%

Proceed to CCOC(=O)N1C2CCC1CC(N1CCC3(CC1)CN(C(=O)c1cc(C)oc1C)c1ccc(F)cc13)C2 (stereo not shown)
65 to 85%

Proceed to `CCOC(=O)N1CCC(N2CCC3(CC2)CN(C(=O)c2cccc(OC)c2)c2ccc(F)cc23)CC1`
> 85%

Proceed to CC(=O)NC1CC2(CCN(C3CC4CCC(C4)C3)CC2)c2ccccc21 (stereo not shown)
< 65%

Proceed to `C#CCCOC(=O)N1CCC(N2CCC3(CC2)CN(C(C)=O)c2ccc(F)cc23)CC1`
< 65%
